Target: BACE-1 (Homo sapiens)
Sequence (P56817 46-501): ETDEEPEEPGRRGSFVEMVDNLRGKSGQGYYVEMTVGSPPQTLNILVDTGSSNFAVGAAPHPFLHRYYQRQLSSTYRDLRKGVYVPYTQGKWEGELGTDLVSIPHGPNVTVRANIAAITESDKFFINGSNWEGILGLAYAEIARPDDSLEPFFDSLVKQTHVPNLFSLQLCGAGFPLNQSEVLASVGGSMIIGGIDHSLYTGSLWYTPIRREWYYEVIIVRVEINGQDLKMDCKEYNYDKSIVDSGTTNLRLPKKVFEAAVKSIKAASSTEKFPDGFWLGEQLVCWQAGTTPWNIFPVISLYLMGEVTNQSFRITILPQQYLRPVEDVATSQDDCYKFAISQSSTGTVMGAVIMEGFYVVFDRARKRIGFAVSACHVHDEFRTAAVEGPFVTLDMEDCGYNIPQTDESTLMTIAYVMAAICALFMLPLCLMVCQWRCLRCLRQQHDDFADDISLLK
Test: LanthaScreen BACE1 biochemical assay (TR-FRET)
Give IC50 for every item shown.

>>> print(df.to_string())
                                   compound  reported_measurement
0  COc1cc(C#N)cc(-c2cc3c(s2)CCCC32N=C(N)N(C)C2=O)c1 (stereo not drawn) [Example 55]             1 to 5 µM
1  NC1=NC2(CCCc3sc(-c4ccc5c(c4)CCO5)cc32)CCS1 (stereo not drawn) [Example 6]            5 to 65 µM
2  NC1=NC2(CCCc3sc(-c4cccc(Cl)c4)cc32)CCS1 (stereo not drawn) [Example 28]             1 to 5 µM

Dear reader, for each entry below, please note its IC50.
1. COc1ccc(CC2CCc3sc(-c4cccc(C#N)c4)cc3C23CCSC(N)=N3)cc1 (racemic) [Example 48]
2. NC1=NC2(CCS1)CC(c1ccccc1)Cc1sc(-c3cccc(Br)c3)cc12 (racemic) [Example 43]
3. COCc1cccc(-c2cc3c(s2)CCCC32CCSC(N)=N2)c1 (stereo not drawn) [Example 23]
4. COc1ccc(C#N)cc1-c1cc2c(s1)CCCC21CCSC(N)=N1 (stereo not drawn) [Example 10]

1 to 5 µM
5 to 65 µM
5 to 65 µM
1 to 5 µM

Dear reader, for each entry below, please note its IC50.
1. COc1cc(C#N)cc(-c2cc3c(s2)CCCC32CCSC(N)=N2)c1 (stereo not drawn) [Example 17]
2. NC1=NC2(CCCc3sc(NC(=O)c4ccc(Br)cn4)cc32)CCS1 (stereo not drawn) [Example 40]

1: 1 to 5 µM; 2: 5 to 65 µM
